target: HDAC1 (Homo sapiens, UniProt Q13547); assay: In-vitro human HDAC1 fluorogenic inhibition assay (ZMAL substrate); format: biochemical; settings: fluorogenic assay; n≥2, each in duplicate wells; read-out: Target Inhibition IC50 HDAC1
Sequence (Q13547 whole entry): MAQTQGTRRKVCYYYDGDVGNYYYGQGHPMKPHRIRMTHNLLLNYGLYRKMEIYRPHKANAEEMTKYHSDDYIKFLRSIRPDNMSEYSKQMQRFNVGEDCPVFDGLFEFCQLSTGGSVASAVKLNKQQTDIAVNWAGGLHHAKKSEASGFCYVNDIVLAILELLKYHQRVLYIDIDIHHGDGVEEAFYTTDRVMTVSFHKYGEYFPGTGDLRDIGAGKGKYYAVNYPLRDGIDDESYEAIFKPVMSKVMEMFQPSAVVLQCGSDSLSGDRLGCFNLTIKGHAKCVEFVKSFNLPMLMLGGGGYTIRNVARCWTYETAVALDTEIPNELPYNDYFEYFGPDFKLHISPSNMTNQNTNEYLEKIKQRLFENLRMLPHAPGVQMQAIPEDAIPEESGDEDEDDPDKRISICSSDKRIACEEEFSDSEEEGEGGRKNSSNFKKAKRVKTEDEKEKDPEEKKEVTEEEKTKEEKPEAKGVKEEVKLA
measuredParameter: IC50 (nM)

Below, each entry is followed by its recorded IC50 result.
O=C(CCCCCNC(=O)c1ncn2c(=O)n(CCCl)nnc12)NO | 681
Cn1nnc2c(C(=O)NCCCCCCC(=O)NO)ncn2c1=O | 161
O=C(CCCCCCNC(=O)c1ncn2c(=O)n(CCCl)nnc12)NO | 143
O=C(NO)c1ccc(CNC(=O)c2ncn3c(=O)n(CCCl)nnc23)cc1 | 394
O=C(CCCCCCNC(=O)c1ccc(NC(=O)COCCOCCNC(=O)COc2cccc3c2C(=O)N(C2CCC(=O)NC2=O)C3=O)cc1)NO (stereo not drawn) | 174
O=C(CCCNC(=O)c1ncn2c(=O)n(CCCl)nnc12)NO | 16200
O=C(/C=C/c1ccc(CNC(=O)CCCc2ccccc2)cc1)NO | 156

A = Cn1nnc2c(C(=O)NCCCC(=O)NO)ncn2c1=O
B = Cn1nnc2c(C(=O)NCc3ccc(/C=C/C(=O)NO)cc3)ncn2c1=O
Please tell me which of the two, A or B , has the higher reported IC50 value. To answer, give the label that identifies your chosen option.
A
(A: 35100 nM, B: 146 nM)

Reference source for all entries: paper PMC7756583
